Assay: Bone powder binding, fluorometric detection
Details: 1 mg/ml compound, bone meal powder 10 mg/ml in PBS, 37° C., 1 h
Catalogue of Binding to bone (%) Fluorescence values
QUANTITY: Binding to bone (%) Fluorescence

INSERT INTO results (compound, quantity, readout_number) VALUES
  ('COc1c(N2C[C@@H]3CCCN[C@@H]3C2)c(F)cc2c(=O)c(C(=O)Oc3ccc(C(P(=O)(O)O)P(=O)(O)O)cc3)cn(C3CC3)c12', 'Binding to bone (%) Fluorescence', 98.9),
  ('COc1c(N2C[C@@H]3CCCN[C@@H]3C2)c(F)cc2c(=O)c(C(=O)OCC(=O)NC(P(=O)(O)O)P(=O)(O)O)cn(C3CC3)c12', 'Binding to bone (%) Fluorescence', 98.7),
  ('COc1c(N2CCN(C(=O)CC(C)(C)c3cc(P(=O)(O)CP(=O)(O)O)ccc3OP(=O)(O)O)C(C)C2)c(F)cc2c(=O)c(C(=O)O)cn(C3CC3)c12 (stereo not drawn)', 'Binding to bone (%) Fluorescence', 0),
  ('COc1c(N2CCN(C(=O)CC(C)(C)c3cc(P(=O)(O)CP(=O)(O)O)ccc3OC(C)=O)C(C)C2)c(F)cc2c(=O)c(C(=O)O)cn(C3CC3)c12 (stereo not drawn)', 'Binding to bone (%) Fluorescence', 36.6),
  ('COc1c(N2CCNC(C)C2)c(F)cc2c(=O)c(C(=O)Oc3ccc(C(P(=O)(O)O)P(=O)(O)O)cc3)cn(C3CC3)c12 (stereo not drawn)', 'Binding to bone (%) Fluorescence', 79.2),
  ('COc1c(N2CCNC(C)C2)c(F)cc2c(=O)c(C(=O)OCC(=O)Nc3ccc(CC(P(=O)(O)O)P(=O)(O)O)cc3)cn(C3CC3)c12 (stereo not drawn)', 'Binding to bone (%) Fluorescence', 88.9);

Where do these numbers come from? They come from patent US20080287396A1.
